Molecular target: Ba/F3 stable cells (Homo sapiens, UniProt P04626, DUP772-775, cells depend on it)
Construct: EC50 Ba/F3-HER2 A775-G776insYVMA; other: Ba/F3-HER2 A775-G776insYVMA cells, 72 h, CCK-8
Sequence (P04626 with tags, fused parts or gaps DUP772-775): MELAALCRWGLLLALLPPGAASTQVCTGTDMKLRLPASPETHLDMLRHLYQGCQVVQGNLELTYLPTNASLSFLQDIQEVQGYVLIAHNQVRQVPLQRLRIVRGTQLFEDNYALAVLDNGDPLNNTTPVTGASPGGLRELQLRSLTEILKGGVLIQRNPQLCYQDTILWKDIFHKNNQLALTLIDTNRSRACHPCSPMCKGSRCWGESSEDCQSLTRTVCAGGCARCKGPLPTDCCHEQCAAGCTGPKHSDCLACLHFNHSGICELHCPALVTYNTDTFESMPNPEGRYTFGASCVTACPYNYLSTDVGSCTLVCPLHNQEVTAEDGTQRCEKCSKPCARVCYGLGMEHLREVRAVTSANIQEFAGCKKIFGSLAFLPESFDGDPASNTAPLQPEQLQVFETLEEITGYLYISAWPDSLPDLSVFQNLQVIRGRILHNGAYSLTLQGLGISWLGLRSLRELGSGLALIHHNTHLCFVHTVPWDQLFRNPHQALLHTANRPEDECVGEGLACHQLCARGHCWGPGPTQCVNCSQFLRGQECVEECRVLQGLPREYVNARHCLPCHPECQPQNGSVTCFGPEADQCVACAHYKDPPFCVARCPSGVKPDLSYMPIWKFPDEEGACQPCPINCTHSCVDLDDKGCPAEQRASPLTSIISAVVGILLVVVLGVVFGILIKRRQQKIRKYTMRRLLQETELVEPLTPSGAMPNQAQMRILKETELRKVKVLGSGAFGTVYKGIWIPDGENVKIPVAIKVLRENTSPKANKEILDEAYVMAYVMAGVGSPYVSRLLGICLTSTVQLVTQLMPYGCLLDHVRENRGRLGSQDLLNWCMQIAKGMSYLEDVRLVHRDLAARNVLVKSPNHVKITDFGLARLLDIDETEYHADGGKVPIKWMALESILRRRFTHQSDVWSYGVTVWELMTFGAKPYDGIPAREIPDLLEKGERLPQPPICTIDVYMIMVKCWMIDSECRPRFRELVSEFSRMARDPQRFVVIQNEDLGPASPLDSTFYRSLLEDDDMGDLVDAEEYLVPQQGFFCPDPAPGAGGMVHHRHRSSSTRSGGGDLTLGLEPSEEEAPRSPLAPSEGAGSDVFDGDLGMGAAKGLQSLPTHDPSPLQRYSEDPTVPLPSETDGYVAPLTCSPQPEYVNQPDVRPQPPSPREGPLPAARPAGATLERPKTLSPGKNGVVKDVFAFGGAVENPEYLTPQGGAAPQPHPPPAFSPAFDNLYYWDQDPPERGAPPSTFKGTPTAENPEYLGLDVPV
Assay: EC50 assay: Ba/F3 stable cell proliferation (CCK-8, 72 h)
Conditions: Ba/F3-HER2 A775-G776insYVMA cells
Procedure: 4,000 Ba/F3 stable cells/90 μL/well were plated onto 96-well cell culture plate (Grenier, Cat.No. 655180) and incubated at 37° C. with a humidified atmosphere of 5% CO2 for 2 h. Then the cells were treated with 10 μL compounds at serial titration. […] 10 μL the cell proliferation reagent CCK-8 (Dojindo, Cat.No. CK04 1000T) was added into each well and incubated the plate at 37° C. for 4 hours, the GD value was measured by SPECTRAmax plus (Molecular Devices) at 450 nm. […]
pEC50: −log10 of the molar value.
recorded endpoint: pEC50

> print(dat)
                                   compound  recorded.endpoint  reported.measurement
1  C=CC(=O)NC1CC(Oc2cc3c(Nc4ccc(Cl)c(Cl)c4)ncnc3cc2OC)C1 (centres unmarked)              pEC50          6.00 to 6.70

Please supply pEC50 for each of the following items, keeping them in order.
1. C=CC(=O)N1CCC(Oc2cc3c(NCc4cccc(Cl)c4)ncnc3cc2OC)CC1
2. C=CC(=O)N1CCC(Oc2cc3c(Nc4ccc5scnc5c4)ncnc3cc2OC)CC1
3. C=CC(=O)NC1CC(Oc2cc3c(Nc4ccc(F)c(Cl)c4)ncnc3cc2OC)C1 (centres unmarked)
4. COc1cc2ncnc(Nc3ccc(Cl)c(Cl)c3F)c2cc1C1=CCCN(C#N)C1
5. C=CC(=O)N1CCC(Oc2cc3c(NC(=O)c4ccc(F)cc4)ncnc3cc2OC)CC1
6. C#CC(=O)N1CCC(Oc2cc3c(Nc4ccc5ccccc5c4)ncnc3cc2OC)CC1

Ans.
1. ≥ 6.70
2. ≥ 6.70
3. < 6.00
4. < 6.00
5. < 6.00
6. ≥ 6.70

Please give pEC50, item by item, for the list that follows.
1. C=CC(=O)N1CCC(Oc2cc3c(NCc4cccc(C#N)c4)ncnc3cc2OC)CC1
2. C=CC(=O)NC1CC(Oc2cc3c(Nc4ccc(F)c(Cl)c4Cl)ncnc3cc2OC)C1 (centres unmarked)
3. C=CC(=O)N1CC(c2cc3c(Nc4ccc(Cl)c(Cl)c4F)ncnc3cc2OCCN(C)C)C1

Ans.
["< 6.00", "6.00 to 6.70", "6.00 to 6.70"]

Answer for every listed entry: what is its pEC50? The entries follow.
1. [2H]C([2H])([2H])Oc1cc2ncnc(Nc3ccc(Cl)c(Cl)c3F)c2cc1C1CN(C(=O)C(=C)F)C1
2. C=CC(=O)N1CCC(Oc2cc3c(NCc4cc(Cl)ccc4F)ncnc3cc2OC)CC1
3. C=CC(=O)N1CCC(Oc2cc3c(NCc4cccc(Cl)c4F)ncnc3cc2OC)CC1
4. C=CC(=O)N1CCC(c2cc3c(Nc4ccc(Cl)c(Cl)c4F)ncnc3cc2OC)C1 (centres unmarked)
5. C=CC(=O)N1CCC(Oc2cc3c(NCc4ccccc4F)ncnc3cc2OC)CC1
6. C#CC(=O)N1C2CCCC1CC(Oc1cc3c(Nc4ccc5ccccc5c4)ncnc3cc1OC)C2 (centres unmarked)
7. C=CC(=O)N1CCC(Oc2cc3c(Nc4ccc5c(c4)OCO5)ncnc3cc2OC)CC1

Ans.
["< 6.00", "6.00 to 6.70", "≥ 6.70", "≥ 6.70", "≥ 6.70", "≥ 6.70", "≥ 6.70"]

---

Molecular target: Ba/F3 stable cells (Homo sapiens, UniProt P00533, T790M/L858R, cells depend on it)
Construct: EC50 Ba/F3-EGFR L858R-T790M; other: Ba/F3-EGFR L858R-T790M cells, 72 h, CCK-8
Sequence (P00533 whole entry T790M/L858R): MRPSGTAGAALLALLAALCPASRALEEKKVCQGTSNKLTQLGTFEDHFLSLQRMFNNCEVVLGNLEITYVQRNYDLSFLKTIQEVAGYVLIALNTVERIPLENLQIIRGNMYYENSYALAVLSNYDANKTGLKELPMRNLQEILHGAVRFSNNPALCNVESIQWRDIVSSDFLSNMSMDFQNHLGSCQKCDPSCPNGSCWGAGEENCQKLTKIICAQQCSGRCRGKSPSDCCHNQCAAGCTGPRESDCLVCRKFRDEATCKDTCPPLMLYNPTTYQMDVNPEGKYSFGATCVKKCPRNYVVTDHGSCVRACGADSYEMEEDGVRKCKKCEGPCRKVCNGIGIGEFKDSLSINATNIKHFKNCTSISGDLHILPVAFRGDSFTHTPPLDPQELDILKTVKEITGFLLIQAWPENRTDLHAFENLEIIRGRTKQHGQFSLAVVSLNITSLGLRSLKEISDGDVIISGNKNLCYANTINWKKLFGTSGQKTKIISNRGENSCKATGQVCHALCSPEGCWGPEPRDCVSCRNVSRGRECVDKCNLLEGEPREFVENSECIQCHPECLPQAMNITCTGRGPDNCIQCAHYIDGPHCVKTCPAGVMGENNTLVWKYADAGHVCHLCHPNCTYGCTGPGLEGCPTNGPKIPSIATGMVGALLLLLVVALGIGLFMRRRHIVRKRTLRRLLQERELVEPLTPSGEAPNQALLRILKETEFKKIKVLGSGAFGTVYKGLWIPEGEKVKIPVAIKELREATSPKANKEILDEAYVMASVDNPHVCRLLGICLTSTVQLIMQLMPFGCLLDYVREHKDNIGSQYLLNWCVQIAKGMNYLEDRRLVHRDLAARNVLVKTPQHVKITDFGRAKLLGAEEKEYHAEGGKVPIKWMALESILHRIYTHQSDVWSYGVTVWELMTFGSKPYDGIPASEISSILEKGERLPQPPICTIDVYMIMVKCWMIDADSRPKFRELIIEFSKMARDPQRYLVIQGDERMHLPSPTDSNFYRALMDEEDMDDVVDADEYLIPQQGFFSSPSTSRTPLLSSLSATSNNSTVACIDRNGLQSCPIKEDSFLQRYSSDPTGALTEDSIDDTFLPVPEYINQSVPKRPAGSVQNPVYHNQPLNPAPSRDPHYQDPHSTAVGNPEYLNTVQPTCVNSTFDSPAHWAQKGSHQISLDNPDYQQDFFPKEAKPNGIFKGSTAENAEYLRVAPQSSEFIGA
Assay: EC50 assay: Ba/F3 stable cell proliferation (CCK-8, 72 h)
Conditions: Ba/F3-EGFR L858R-T790M cells
Kindly state EC50 for each of the entries shown.

> print(dat)
                                   molecule  reported.measurement
1  C=CC(=O)N1CCC(Oc2cc3c(NC(=O)c4ccc(F)cc4)ncnc3cc2OC)CC1                > 1 µM
2  C=CC(=O)N1CCC(Oc2cc3c(Nc4ccc5nccnc5c4)ncnc3cc2OC)CC1                > 1 µM
3  C=CC(=O)N1CCC(Oc2cc3c(NC(C(N)=O)c4cccc(Cl)c4)ncnc3cc2OC)CC1 (stereo not shown)                > 1 µM
4  C=CC(=O)NC1COc2c(-c3cnc4ccccc4c3)c3c(N)ncnc3n2C1 (stereo not shown)              ≤ 0.2 µM
5  C=CC(=O)NC1CC(Oc2cc3c(Nc4ccc5c(c4)CCCC5=O)ncnc3cc2OC)C1 (stereo not shown)                > 1 µM
6  C#CC(=O)N1CC(c2cc3c(Nc4ccc(OCc5ccccc5)c(Cl)c4F)ncnc3cc2OC)C1                > 1 µM

For every item in the list below, what is its measured EC50?
1. C=CC(=O)N1C2CCC1CC(Oc1cc3c(Nc4cccc5ccccc45)ncnc3cc1OC)C2 (stereo not shown)
2. C=CC(=O)N1CCC(Oc2cc3c(Nc4ccc5c(ccn5C)c4)ncnc3cc2OC)CC1
3. C#CC(=O)N1C2CCC1CC(Oc1cc3c(Nc4cccc5ccccc45)ncnc3cc1OC)C2 (stereo not shown)
4. COc1cc2ncnc(Nc3ccc(Cl)c(Cl)c3F)c2cc1C1=CCCN(C#N)C1

Ans.
1: ≤ 0.2 µM; 2: ≤ 0.2 µM; 3: ≤ 0.2 µM; 4: > 1 µM

---

Molecular target: Ba/F3 stable cells (Homo sapiens, UniProt P04626, DUP772-775, cells depend on it)
Construct: EC50 Ba/F3-HER2 A775-G776insYVMA; other: Ba/F3-HER2 A775-G776insYVMA cells, 72 h, CCK-8
Assay: EC50 assay: Ba/F3 stable cell proliferation (CCK-8, 72 h)
Details: Ba/F3-HER2 A775-G776insYVMA cells
Please respond with reported EC50 for every item in the list.

Examples from the recorded data:
> print(dat)
                                    compound                       experimental.target  reported.measurement
 1  C=CC(=O)N1CCC(Oc2cc3c(Nc4ccc5cccnc5c4)ncnc3cc2OC)CC1  Ba/F3 stable cells (Homo sapiens, UniProt P04626, DUP772-775, cells depend on it)        200 to 1000 nM
 2  C=CC(=O)N1CCC(Oc2cc3c(Nc4ccc5ccccc5c4)ncnc3cc2OC)CC1  Ba/F3 stable cells (Homo sapiens, UniProt P04626, DUP772-775, cells depend on it)        200 to 1000 nM
 3  C=CC(=O)N1CCC(Oc2cc3c(NC(C(N)=O)c4cccc(Cl)c4)ncnc3cc2OC)CC1 (stereo not shown)  Ba/F3 stable cells (Homo sapiens, UniProt P04626, DUP772-775, cells depend on it)             > 1000 nM
 4  C=CC(=O)N1CCC(Oc2cc3c(Nc4ccc5ncsc5c4)ncnc3cc2OC)CC1  Ba/F3 stable cells (Homo sapiens, UniProt P04626, DUP772-775, cells depend on it)             > 1000 nM
 5  C=CC(=O)N[C@H]1CC[C@@H](Oc2cc3c(Nc4ccc(Cl)c(Cl)c4F)ncnc3cc2OC)CC1  Ba/F3 stable cells (Homo sapiens, UniProt P04626, DUP772-775, cells depend on it)             > 1000 nM
 6  C=CS(=O)(=O)N1CCC(Oc2cc3c(C(=O)c4ccc(Cl)c(Cl)c4F)ncnc3cc2OC)CC1  Ba/F3 stable cells (Homo sapiens, UniProt P04626, DUP772-775, cells depend on it)             > 1000 nM
 7  [2H]C([2H])([2H])Oc1cc2ncnc(Nc3ccc(Cl)c(Cl)c3F)c2cc1O[C@H]1C[C@@H](NC(=O)C=C)C1  Ba/F3 stable cells (Homo sapiens, UniProt P04626, DUP772-775, cells depend on it)              ≤ 200 nM
 8  C#CC(=O)N1CCC(Oc2cc3c(Nc4ccc(Cl)c(Cl)c4F)ncnc3cc2OC)CC1  Ba/F3 stable cells (Homo sapiens, UniProt P04626, DUP772-775, cells depend on it)        200 to 1000 nM
 9  C=CC(=O)N1CCC(Oc2cc3c(NC(CC(N)=O)c4cccc(Cl)c4)ncnc3cc2OC)CC1 (stereo not shown)  Ba/F3 stable cells (Homo sapiens, UniProt P04626, DUP772-775, cells depend on it)        200 to 1000 nM
10  C=CC(=O)N1CCC(Oc2cc3c(Nc4cccc5c4CCC5)ncnc3cc2OC)CC1  Ba/F3 stable cells (Homo sapiens, UniProt P04626, DUP772-775, cells depend on it)              ≤ 200 nM

Batch request: EC50 for each of the following compounds.
1. C=CC(=O)N[C@H]1C[C@@H](Oc2cc3c(Nc4ccc(Cl)c(Cl)c4F)ncnc3cc2OCCO)C1
2. C=CC(=O)N1CCC(Oc2cc3c(Nc4cccc5ccccc45)ncnc3cc2OC)CC1
3. C=CC(=O)N1CCC(Oc2cc3c(NCc4cc(F)cc(Cl)c4)ncnc3cc2OC)CC1

Ans.
1. 200 to 1000 nM
2. ≤ 200 nM
3. > 1000 nM

Provide each entry's EC50 from the list below.
1. C=CC(=O)NC1CC(Oc2cc3c(Nc4ccc5ccccc5c4)ncnc3cc2OC)C1 (stereo not shown)
2. C=CC(=O)N1CC(c2cc3c(Nc4ccc(Cl)c(Cl)c4F)ncnc3cc2OC2COC2)C1
3. C=CC(=O)N1CCC(Oc2cc3c(Nc4ccc5ccccc5n4)ncnc3cc2OC)CC1
4. C=CS(=O)(=O)N1CCC(Oc2c(OC)cc3ncnc4c3c2NC(=O)N4c2ccc(Cl)c(Cl)c2F)CC1
5. C=CC(=O)NC1CC(Oc2cc3c(Nc4ccc(F)c5c4CCC5O)ncnc3cc2OC)C1 (stereo not shown)
6. [2H]C([2H])([2H])n1cn/c(=N\c2ccc(Cl)c(Cl)c2F)c2cc3c(cc21)OCC3CNC(=O)C=C (stereo not shown)

Ans.
1. > 1000 nM
2. ≤ 200 nM
3. > 1000 nM
4. > 1000 nM
5. > 1000 nM
6. > 1000 nM
